- Test system: SN12C renal
- Measurement Protocol: NCI-60 one-dose screen, 48 h (100 = growth as untreated, 0 = no growth, -100 = all killed)
- Experimental Context: 10 µM unless noted
Compounds without any hit were thinned out: in the full panel of roughly 83,000, 20% have a hit.
Quantity Name: growth (%)
Please respond with the number in % and leave the unit unwritten.

# example entries with known answers
CCOC(=O)c1c(N)sc2cc(O)ccc12; 101
Cc1ccc(OCCOCCOCCOCCOc2ccc(C)n(O)c2=S)c(=S)n1O; 13.1
Clc1ccc2c(NCCCn3cnc4c(N5CCCC5)nc(Cl)nc43)ccnc2c1; 94.3
O=C(COc1ccc(/C=C2\Oc3ccccc3C2=O)cc1)Nc1nccs1; 90.3

Query: Given the entry O=C(NS(=O)(=O)c1ccccc1)n1cc(-c2ccncc2)c(-c2cc(O)cc(Cl)c2)n1 , report its measured growth.
Reply: 100

Query: What growth value was documented for this compound, Cn1ccnc1C(=O)/C=C/c1ccc(CC(=O)Nc2cc(F)c(F)c(F)c2)cc1 ?
Reply: 13.2

Query: What growth value was documented for this compound, COc1ccc(/C=N\NC(=O)c2ccc3nc(-c4ccc(Cl)cc4)[nH]c3c2)cc1 ?
Reply: 6.24

Query: Quick one: growth for C=CCNc1ccc2c3c(cccc13)C(=O)N(CC=C)C2=O ?
Reply: 97.6

Query: Look up growth for this compound: O=C(O)c1cc2ccccc2s1
Reply: 106

Query: For the compound O=C(Nc1ncc(Cc2cc(C(F)(F)F)ccc2Cl)s1)C(=S)N1CCOCC1 , what growth is on record?
Reply: 96.2

====

- System: HCC-2998 colon
- Measurement Protocol: NCI-60 one-dose screen, 48 h (100 = growth as untreated, 0 = no growth, -100 = all killed)
- Experimental Context: 10 µM unless noted
Compounds without any hit were thinned out: in the full panel of roughly 83,000, 20% have a hit. Calls of active or inactive are those of the source. The calls were made as follows: active = growth percent below 10; inactive = the rest.
Quantity Name: growth

Some solved cases for reference:
O=C(/C=C/c1ccc([N+](=O)[O-])cc1)c1cccc(Nc2nc(Nc3ccccc3)nc(Nc3ccccc3)n2)c1; 46.1% (inactive)
COc1ccc(-c2cc(-c3ccc(Nc4nc(Nc5ccc(Cl)cc5)nc(Nc5ccc(Cl)cc5)n4)cc3)no2)cc1; 11.4% (inactive)
COc1ccc(/C(C)=C(\c2ccc(Cl)cc2)c2ccc(OCCCN(C)C)cc2)cc1; 100% (inactive)
Cc1ccc(-c2nc(C#N)c(S(=O)(=O)n3nc(C)cc3N)o2)cc1; 110% (inactive)
CC(=O)O[C@H]1CC[C@@]2(C)C(=CC[C@@H]3[C@@H]2CC[C@]2(C)C(Cl)=C(c4nc5ccc(Cl)cn5c4NC(C)(C)C)C[C@@H]32)C1; 112% (inactive)
Cn1cc(-c2nc(-c3c[nH]c4c(Cl)nccc34)cs2)c2ccccc21; 94.5% (inactive)

Query: Fill in the blank: the reported growth of N#CC1=C(N)Oc2c(ccc3ccccc23)C1c1cc2ccccc2n2nnnc12 (centres undefined) is ____.
Reply: 46.9% (inactive)

Query: growth for CN(C)CCOc1nc2c3cc([N+](=O)[O-])ccc3nn2c2ccccc12 ?
Reply: 54.6% (inactive)

Query: Consider the compound O=C1c2c(c3c4cc(F)ccc4oc3c3[nH]c4ccccc4c23)C(=O)N1O and give its measured growth.
Reply: 70.3% (inactive)

====

- Tested on: HT29 colon
- Measurement Protocol: NCI-60 one-dose screen, 48 h (100 = growth as untreated, 0 = no growth, -100 = all killed)
- Experimental Context: 10 µM unless noted
Compounds without any hit were thinned out: in the full panel of roughly 83,000, 20% have a hit.
// -1 strictly below 10% in growth; 1 otherwise

Example results:
O=C(O)COc1ccc(F)cc1; 1
COC(=O)c1c(C)nc(C)c2c1C(=O)C(Br)=C(NCCN1CCOCC1)C2=O; 1
COC(=O)c1cc(-c2ccc(OC)c(OC)c2)[nH]c1N/N=C/c1c(Cl)cccc1Cl; 1
CC1=C([Se]CC(OC(=O)[C@@H](CO)NC(=O)OC(C)(C)C)C(=O)NCCCCCC(=O)OCc2ccccc2)C(=O)c2ccccc2C1=O (stereo not given in full); -1

Query: Hello, I need to know if Cn1cc(-c2nc(-c3c[nH]c4ccncc34)cs2)c2cc(F)ccc21 has measured growth not below 10%. Thanks!
Reply: -1

Query: Assess whether reported growth for COc1ccccc1-c1nc2ccc3[nH]ncc3c2c2c1CCCC2 sits at 10% or higher.
Reply: 1

Query: In plain terms: is recorded growth at least 10% for O=C(CSc1nnc(-c2cc(-c3ccc(Cl)cc3)nc3ccccc23)n1-c1ccccc1)Nc1ccc(Cl)cc1 ?
Reply: 1

Query: Does the compound O=C(/C=C/C12c3ccccc3C(c3ccccc31)C1C(=O)NC(=O)C12)c1cccs1 (stereo not given) have recorded growth that is 10% or more?
Reply: 1

Query: Would you say CN1CCN(CCCNC(=O)c2c3c(n4ccccc24)C(=O)c2ncccc2C3=O)CC1 shows growth at minimum 10%?
Reply: -1

Query: Is the recorded value of growth equal to or greater than 10% for this compound? CS(=O)(=O)c1cccc(Nc2ncc3cc(-c4ccccc4Cl)ccc3n2)c1
Reply: -1

====

- System: MDA-MB-435 melanoma
- Measurement Protocol: NCI-60 one-dose screen, 48 h
- Experimental Context: 10 µM unless noted
About 83,000 compounds went through this panel and 20% of them were active in at least one assay; those are over-represented in the sample as a whole. Active and inactive are the calls of the source. Rule for the calls: active = growth percent below 10; inactive = the rest.
One label from this list, please: 1 (active), -1 (inactive)

Query: Which result was noted for this compound in the test: COc1cc(C2CC(c3cccc(Nc4ccncc4)c3)=Nc3c(N)ncnc3N2)cc(OC)c1OC (centres undefined)
Reply: -1

Query: Dear all, I need the recorded test outcome for COc1nc2ccccc2cc1/C=C1/C=C(c2ccccc2)NC1=O , thank you.
Reply: 1

Query: What was the test verdict on Cc1ccc(Nc2oc(-c3ccccc3)nc2[P+](c2ccccc2)(c2ccccc2)c2ccccc2)cc1 ?
Reply: 1

Query: Short answer needed: outcome of this test for Nc1c(C(=O)c2ccc(Cl)cc2)sc(Nc2ccccc2)c1-c1nc2ccccc2s1 ?
Reply: -1

Query: Record request — test call for COc1cccc2cc(N(C)c3nc(C)nc4c3CCC4)ccc12
Reply: 1

Query: So what was the verdict on CCOc1cc(\C=N/N=C(N)/C(N)=N\N=C/c2ccc(O)c(OCC)c2)ccc1O in this test?
Reply: -1

====

- Test system: 786-0 renal
- Measurement Protocol: NCI-60 one-dose screen, 48 h
- Experimental Context: 10 µM unless noted
Compounds without any hit were thinned out: in the full panel of roughly 83,000, 20% have a hit. Calls of active or inactive are those of the source. Rule for the calls: active = growth percent below 10; inactive = the rest.
Answer with one of the outcomes Y (active), N (inactive)

Here's what some known entries look like.
Cc1c(C(=O)C(SC(=S)N2CCOCC2)SC(=S)N2CCOCC2)nnn1-c1ccc([N+](=O)[O-])cc1; N
N#CC1=C(N)Oc2c(ccc3ccccc23)C1c1cc2ccccc2n2nnnc12 (stereo not given); N
O=C(Nc1ncc(Cc2ccccc2)s1)c1cc(-c2ccccc2)nc2ccccc12; N

Query: What did the test return for COc1cc(/C=C2\C(=O)N(CCOc3cc(O)c4c(=O)cc(-c5ccccc5)oc4c3)c3ccccc32)cc(OC)c1O ?
Reply: N

Query: Call for entry Cc1nc2ccccc2c(/C=C/c2ccc(Br)cc2)c1C(=O)/C=C/c1ccccc1 :
Reply: Y

Query: Each compound tested received a call. Report the one for CS(=O)(=O)c1cccc(Nc2ncc3cc(-c4ccccc4Cl)ccc3n2)c1 .
Reply: N

Query: Which outcome was entered for the compound CCOc1ccc(N2C(=O)CCSC2=S)cc1 in this test?
Reply: N

Query: So what was the verdict on C=C(CNCCO)[C@@H]1CC[C@]2(CO)CC[C@]3(C)[C@H](CC[C@@H]4[C@@]5(C)CCC(NCCO)C(C)(C)[C@@H]5CC[C@]43C)[C@@H]12 (stereo not given in full) in this test?
Reply: N

Query: Returns: the outcome recorded for CCCCN(CCC#N)C(N)=O in this assay.
Reply: N

Query: // return assay outcome for CC/C(=C(/c1ccc(Cl)cc1)c1ccc(OCCN2CCCC2)cc1)c1ccccc1
Reply: N

====

Here the recorded growth is given for each entry.
- Tested on: HCT-15 colon
- Measurement Protocol: NCI-60 one-dose screen, 48 h (100 = growth as untreated, 0 = no growth, -100 = all killed)
- Experimental Context: 10 µM unless noted
About 83,000 compounds went through this panel and 20% of them were active in at least one assay; those are over-represented in the sample as a whole.
Report the figure in % without appending any unit label.

Query: Suppose we examine the molecule Oc1c(Cl)cc(Cl)c2ccc(CN3CCNCC3)nc12 ; what growth value has been reported?
Reply: 19.5

Query: growth for O=C(/C=C/c1ccc(Cl)cc1)c1ccc(-n2cc(CN3CCN(c4cc5c(cc4F)c(=O)c(C(=O)O)cn5C4CC4)CC3)nn2)cc1 ?
Reply: 95.8

Query: Given the molecule O=c1c(/C=C/c2c(O)ccc3ccccc23)nnc2sc(-c3cccc([N+](=O)[O-])c3)nn12 , what is its reported growth?
Reply: 29.1

Query: What value of growth has been recorded for this entry: CN1CCN(Cc2ccc(NC(=O)c3cncc(C#Cc4c(N)ncc5cc(F)ccc45)c3)cc2C(F)(F)F)CC1
Reply: -91.7

Query: Using the record for O=C(Nc1ncc(Cc2ccccc2)s1)c1ccc2c(c1)OCCO2 , report its growth.
Reply: 7.07

Query: I would be grateful if you could share the reported growth for Cc1nn(C)c2ncnc(Nc3ccccc3Br)c12 .
Reply: 101

Data origin, for the record: PubChem BioAssay (NCI)
